Data provenance is patent US20230373972A1.

tested-on: Native human Factor XIa protease (Homo sapiens, UniProt P03951)
Construct: The Native human Factor XIa protease was purchased from Abcam; purchased Abcam ab62411
Sequence (P03951 388-625 limits assumed): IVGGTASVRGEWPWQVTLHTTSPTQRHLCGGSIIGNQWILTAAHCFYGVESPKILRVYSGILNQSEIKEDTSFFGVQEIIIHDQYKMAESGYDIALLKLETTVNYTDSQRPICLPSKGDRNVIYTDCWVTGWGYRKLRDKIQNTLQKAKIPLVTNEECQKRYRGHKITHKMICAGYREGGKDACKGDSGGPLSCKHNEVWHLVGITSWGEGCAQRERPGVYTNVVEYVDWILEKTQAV
Sequence (P03951 19-387 partner limits assumed): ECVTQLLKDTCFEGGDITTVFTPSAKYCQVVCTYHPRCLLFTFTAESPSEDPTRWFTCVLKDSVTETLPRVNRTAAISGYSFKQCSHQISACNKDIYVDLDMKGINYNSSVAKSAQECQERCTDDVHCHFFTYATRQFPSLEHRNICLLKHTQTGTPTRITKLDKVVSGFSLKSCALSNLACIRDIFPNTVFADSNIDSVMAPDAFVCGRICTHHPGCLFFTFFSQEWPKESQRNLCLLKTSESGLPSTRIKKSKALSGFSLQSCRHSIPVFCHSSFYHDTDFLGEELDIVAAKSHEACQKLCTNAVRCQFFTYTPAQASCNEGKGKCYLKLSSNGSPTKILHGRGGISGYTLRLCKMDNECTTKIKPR
assay-comment: Inhibition of activity of Factor XIa protease (chromogenic substrate S-2366)
Assay type: biochemical
condition-label: S-2366 1 mM, 37° C. 10 minutes, absorption at 405 nm
// NB: equality with 20 nM counts as False; only IC50 strictly below is True

[
  {
    "molecule": "Cn1ccc(C[C@@H](C(=O)Nc2ccc3nn(C)cc3c2)N2CC(=O)N(c3cc(Cl)ccc3-n3cc(Cl)nn3)CC2=O)n1",
    "classification": "False"
  },
  {
    "molecule": "O=C(Nc1ccn2nccc2c1)C(Cc1ccccc1)N1CC(=O)N(c2cc(Cl)ccc2-n2cnnn2)CC1=O (stereo not drawn)",
    "classification": "True"
  },
  {
    "molecule": "[2H]C([2H])([2H])n1cc2cc(NC(=O)C(Cc3ccccc3)N3CC(=O)N(c4cc(Cl)ccc4-n4cc(Cl)nn4)CC3=O)ccc2n1 (stereo not drawn)",
    "classification": "True"
  },
  {
    "molecule": "CC(=O)c1ccc(NC(=O)C(Cc2ccccc2)N2CC(=O)N(c3cc(Cl)ccc3-n3cnnn3)CC2=O)cc1 (stereo not drawn)",
    "classification": "False"
  },
  {
    "molecule": "Cn1ccc(CC(C(=O)Nc2ccc3nn(C)cc3c2)N2CC(=O)N(c3cc(Cl)ccc3-n3cc(Cl)nn3)CC2=O)n1 (stereo not drawn)",
    "classification": "False"
  },
  {
    "molecule": "Cn1cc2cc(NC(=O)C(Cc3ccccc3)N3CC(=O)N(c4cc(Cl)ccc4-n4cc(Cl)nn4)CC3=O)ccc2n1 (stereo not drawn)",
    "classification": "True"
  },
  {
    "molecule": "O=C(O)c1ccc(NC(=O)C(Cc2ccccc2)N2CC(=O)N(c3cc(Cl)ccc3-n3cnnn3)CC2=O)cc1 (stereo not drawn)",
    "classification": "True"
  },
  {
    "molecule": "CNC(=O)c1ccc(NC(=O)C(Cc2ccccc2)N2CC(=O)N(c3cc(Cl)ccc3-n3cnnn3)CC2=O)cc1 (stereo not drawn)",
    "classification": "False"
  },
  {
    "molecule": "O=C(Nc1ccc2nn(C(F)F)cc2c1)C(Cc1ccccc1)N1CC(=O)N(c2cc(Cl)ccc2-n2cc(Cl)nn2)CC1=O (stereo not drawn)",
    "classification": "True"
  },
  {
    "molecule": "NC(=O)c1ccc(NC(=O)C(Cc2ccccc2)N2CC(=O)N(c3cc(Cl)ccc3-n3cnnn3)CC2=O)cc1F (stereo not drawn)",
    "classification": "False"
  },
  {
    "molecule": "Cn1cc2cc(NC(=O)C(Cc3ccc(F)cc3)N3CC(=O)N(c4cc(Cl)ccc4-n4cc(Cl)nn4)CC3=O)ccc2n1 (stereo in doubt) [Example 99]",
    "classification": "False"
  },
  {
    "molecule": "O=C(Nc1ccn2nccc2c1)C(Cc1ccccc1)N1CC(=O)N(c2cc(Cl)ccc2-n2cc(Cl)nn2)CC1=O (stereo not drawn)",
    "classification": "False"
  },
  {
    "molecule": "CN1Cc2cc(NC(=O)C(Cc3ccccc3)N3CC(=O)N(c4cc(Cl)ccc4-n4cnnn4)CC3=O)ccc2C1=O (stereo not drawn)",
    "classification": "False"
  },
  {
    "molecule": "COCCC(C(=O)Nc1ccc2nn(C)cc2c1)N1CC(=O)N(c2cc(Cl)ccc2-n2cc(Cl)nn2)CC1=O (stereo not drawn)",
    "classification": "False"
  },
  {
    "molecule": "Cn1cc2cc(NC(=O)C(Cc3ccc(F)cc3)N3CC(=O)N(c4cc(Cl)ccc4-n4cc(Cl)nn4)CC3=O)ccc2n1 (stereo not drawn) [Example 47]",
    "classification": "False"
  },
  {
    "molecule": "Cn1cc2ccc(NC(=O)C(Cc3ccccc3)N3CC(=O)N(c4cc(Cl)ccc4-n4cnnn4)CC3=O)cc2n1 (stereo not drawn)",
    "classification": "False"
  },
  {
    "molecule": "O=C(O)c1ccc(NC(=O)C(Cc2ccccc2)N2CC(=O)N(c3cc(Cl)ccc3-n3cc(Cl)nn3)CC2=O)cc1 (stereo not drawn)",
    "classification": "True"
  },
  {
    "molecule": "O=C(Nc1cccc(F)c1)C(Cc1ccccc1)N1CC(=O)N(c2cc(Cl)ccc2-n2cnnn2)CC1=O (stereo not drawn)",
    "classification": "False"
  },
  {
    "molecule": "Cn1cc2cc(NC(=O)C(Cc3ccccc3)N3CC(=O)N(c4cc(Cl)ccc4-n4cnnn4)CC3=O)ccc2n1 (stereo not drawn)",
    "classification": "True"
  },
  {
    "molecule": "COC(=O)Nc1ccc(NC(=O)C(Cc2ccccc2)N2CC(=O)N(c3cc(Cl)ccc3-n3cnnn3)CC2=O)cc1 (stereo not drawn)",
    "classification": "False"
  },
  {
    "molecule": "Cn1cc2cc(NC(=O)C(Cc3ccc(C#N)cc3)N3CC(=O)N(c4cc(Cl)ccc4-n4cc(Cl)nn4)CC3=O)ccc2n1 (stereo not drawn)",
    "classification": "False"
  },
  {
    "molecule": "CNC(=O)c1ccc(NC(=O)C(Cc2ccccc2)N2CC(=O)N(c3cc(Cl)ccc3-n3cnnn3)CC2=O)cc1F (stereo not drawn)",
    "classification": "False"
  },
  {
    "molecule": "O=C(Nc1ccc2nn(C(F)F)cc2c1)C(Cc1ccccc1)N1CC(=O)N(c2cc(Cl)ccc2-n2cnnn2)CC1=O (stereo not drawn)",
    "classification": "True"
  },
  {
    "molecule": "COC(=O)c1ccc(NC(=O)C(Cc2ccccc2)N2CC(=O)N(c3cc(Cl)ccc3-n3cnnn3)CC2=O)cc1 (stereo not drawn)",
    "classification": "False"
  },
  {
    "molecule": "COCC[C@@H](C(=O)Nc1ccc2nn(C)cc2c1)N1CC(=O)N(c2cc(Cl)ccc2-n2cc(Cl)nn2)CC1=O",
    "classification": "False"
  },
  {
    "molecule": "NC(=O)c1ccc(NC(=O)[C@H](Cc2ccccc2)N2CC(=O)N(c3cc(Cl)ccc3-n3cc(Cl)nn3)CC2=O)cc1F",
    "classification": "False"
  }
]
